pKi: −log10 of the molar value.
List of pKi tested on UniProt:P08588.
Sequence (P08588 whole entry): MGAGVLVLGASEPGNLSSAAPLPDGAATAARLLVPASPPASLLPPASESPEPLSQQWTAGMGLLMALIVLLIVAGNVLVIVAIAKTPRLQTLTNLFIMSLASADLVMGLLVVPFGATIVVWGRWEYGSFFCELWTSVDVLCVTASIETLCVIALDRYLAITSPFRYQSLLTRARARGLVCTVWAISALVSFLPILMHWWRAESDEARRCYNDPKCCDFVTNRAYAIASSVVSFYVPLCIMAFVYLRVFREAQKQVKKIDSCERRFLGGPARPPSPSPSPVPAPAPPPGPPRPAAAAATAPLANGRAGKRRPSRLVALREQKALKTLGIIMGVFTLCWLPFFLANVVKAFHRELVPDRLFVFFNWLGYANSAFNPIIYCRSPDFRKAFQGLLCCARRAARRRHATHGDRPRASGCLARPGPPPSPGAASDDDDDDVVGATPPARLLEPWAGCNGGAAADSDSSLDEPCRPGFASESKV

Sample records with pKi:
CCCCN(C(=O)CC(=O)O)c1ccc(N2CCC(NC[C@H](O)c3ccc(O)c(NS(C)(=O)=O)c3)CC2)cc1; < 4.00
CS(=O)(=O)Nc1cc([C@@H](O)CNC2CCN(c3ccc(C(=O)NCC(=O)O)cc3)CC2)ccc1O; < 4.00
CS(=O)(=O)Nc1cc([C@@H](O)CNC2CCN(c3ccc(C(=O)N[C@@H](Cc4ccccc4)C(=O)O)cc3)CC2)ccc1O; < 4.00

## Input Request body: readout pKi, system UniProt:P08588, query CC(C)C[C@H](NC(=O)c1ccc(N2CCC(NC[C@H](O)c3ccc(O)c(NS(C)(=O)=O)c3)CC2)cc1)C(=O)O . Return the value.
## Output < 4.00

## Input Request body: readout pKi, system UniProt:P08588, query CCCCCCNC(=O)Nc1ccc(S(=O)(=O)Nc2ccc(CCNC[C@H](O)COc3ccc(O)cc3)cc2)cc1 [L-755507] . Return the value.
## Output 6.24

## Input Request body: readout pKi, system UniProt:P08588, query CC(C)[C@H](NC(=O)c1ccc(N2CCC(NC[C@H](O)c3ccc(O)c(NS(C)(=O)=O)c3)CC2)cc1)C(=O)O . Return the value.
## Output < 4.00
